protocol: yeast display, Sf9 membrane polyspecificity reagent, FACS + sequencing; frameworks hold sequencing errors
measured_endpoint: polyreactivity (PSR sort gate)

Some solved entries appear below for comparison.
QVQLVESGGCLVQAGGSLRLSCAASGSIFSSYQMGWYRQAPGKQRELVEAISSGGSTNYADSVKGRFTISRDNAKNTVYLQMHRLKPEDTAVYYCNVDLFNWGGDSTGYDYWGQGTQVTVSS low polyreactivity
QVQLVESGGGLVQAGGSLRLSCAASGSIFYKYMGWYRQAPGKERELVAAITWSGGSTYYADSVKGRFTISRDNAKNTVYLQMNSLKPEDTAVYYCAARDYTRYGYGYWGQGTQVTVSS high polyreactivity
QVQLVESGGGLVQAGGSLRLSCAASGFTFQYYAKGWYRQAPGKERELVAAISSSGGSTFYADSVKGRFTSSRDNAKNTVYLQMNSLKPEDTAVYYCATYTSPGYYYWGQGTQVTVSS high polyreactivity
QVQLVESGGGLVQAGGSLRLTCAASGFIFPRYAMGWYRQAPGKERELVAAISGNGVRTYYADSVKGRFTISRDNAKNTVYLQMNSLNPEDTAVYYCNTGADVRYRYYYWGQGTQVTVSS high polyreactivity

Then there is this sequence:
Give the value of polyreactivity (PSR sort gate) reported for the following: QVQLVESGGGIVQAGGSLRLSCAASGSTIGGYAMGWYRQAPGKERELVAAIRRSGDSTYYADSVKGRFTISRDNAKNTVYLQMNSLKPEDTAVYYCNTDRTHSYQYGGYDYWGQGTQVTVSS low polyreactivity
